Target: c-MET (Homo sapiens)
Sequence (P08581 25-1390): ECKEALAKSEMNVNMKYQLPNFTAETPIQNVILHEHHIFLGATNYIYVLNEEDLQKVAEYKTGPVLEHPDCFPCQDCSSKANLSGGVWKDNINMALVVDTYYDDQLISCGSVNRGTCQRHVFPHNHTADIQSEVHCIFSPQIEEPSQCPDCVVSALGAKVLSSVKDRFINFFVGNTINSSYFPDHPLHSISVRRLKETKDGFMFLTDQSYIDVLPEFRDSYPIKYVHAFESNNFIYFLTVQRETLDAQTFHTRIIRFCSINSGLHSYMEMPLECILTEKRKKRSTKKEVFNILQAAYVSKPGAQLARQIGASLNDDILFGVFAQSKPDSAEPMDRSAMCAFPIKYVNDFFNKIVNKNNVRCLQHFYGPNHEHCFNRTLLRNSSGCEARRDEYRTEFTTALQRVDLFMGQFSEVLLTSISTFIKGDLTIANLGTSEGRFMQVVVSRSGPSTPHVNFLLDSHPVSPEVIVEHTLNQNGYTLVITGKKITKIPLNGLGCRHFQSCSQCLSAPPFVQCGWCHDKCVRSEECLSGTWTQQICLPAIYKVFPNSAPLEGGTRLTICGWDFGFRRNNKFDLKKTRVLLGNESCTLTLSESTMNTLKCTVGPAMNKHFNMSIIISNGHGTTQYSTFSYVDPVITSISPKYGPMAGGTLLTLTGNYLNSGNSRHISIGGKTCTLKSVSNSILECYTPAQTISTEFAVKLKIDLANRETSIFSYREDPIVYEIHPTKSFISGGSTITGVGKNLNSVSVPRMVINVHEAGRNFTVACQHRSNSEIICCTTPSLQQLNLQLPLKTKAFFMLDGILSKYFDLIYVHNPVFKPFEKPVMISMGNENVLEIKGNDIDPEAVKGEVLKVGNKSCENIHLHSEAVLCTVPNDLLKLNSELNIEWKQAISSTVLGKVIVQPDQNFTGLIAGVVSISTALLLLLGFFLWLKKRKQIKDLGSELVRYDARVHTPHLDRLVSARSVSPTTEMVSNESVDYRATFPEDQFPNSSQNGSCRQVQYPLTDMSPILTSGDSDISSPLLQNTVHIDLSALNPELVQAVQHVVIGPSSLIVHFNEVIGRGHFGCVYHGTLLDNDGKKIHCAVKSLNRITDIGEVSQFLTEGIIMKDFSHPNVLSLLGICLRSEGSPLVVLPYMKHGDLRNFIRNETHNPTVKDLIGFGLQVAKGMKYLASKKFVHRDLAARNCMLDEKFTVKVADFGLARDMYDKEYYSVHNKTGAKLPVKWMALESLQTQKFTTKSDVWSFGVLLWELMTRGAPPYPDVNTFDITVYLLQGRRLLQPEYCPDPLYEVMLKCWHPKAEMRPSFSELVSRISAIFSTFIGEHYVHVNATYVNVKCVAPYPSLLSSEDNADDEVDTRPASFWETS
Assay: c-MET protein degradation (Simple Western), SNU-638
Format: cell-based
Parameters: assess the resolution of the compound of the present invention for c-MET expressed in cells; endogenous in cells; host or cells: SNU638 (human gastric cancer)
Settings: c-MET overexpressing gastric cancer cell line SNU-638, treated 24 hours; Table 2
I'd be grateful if you could share measured DC50 for these entries.

INSERT INTO measurements (compound, measurement_label, reported_result) VALUES
  ('Cc1nn(C2CCC(=O)NC2=O)c(=O)c2ccc(N3CCN(c4ccc(NC(=O)CN5CCC(COc6cnc(-c7cccc(Cn8nc(-c9cccc(C#N)c9)ccc8=O)c7)nc6)CC5)cc4)CC3)cc12 (stereo not drawn)', 'DC50', '< 100 nM'),
  ('N#Cc1cccc(-c2ccc(=O)n(Cc3cccc(-c4ncc(-c5cccc(CN6CCN(c7ccc(NC8CCC(=O)NC8=O)cc7F)CC6)c5)cn4)c3)n2)c1 (stereo not drawn)', 'DC50', '> 1000 nM');

The recorded DC50 for N#Cc1cccc(-c2ccc(=O)n(Cc3cccc(-c4ncc(OCC5CCN(C(=O)CN6CCN(c7ccc8c(=O)n(C9CCC(=O)NC9=O)ncc8c7)CC6)CC5)cn4)c3)n2)c1 (stereo not drawn) is 100 to 1000 nM

Source listed as patent EP4624466A1.
